Molecular target: Ferrochelatase, mitochondrial (Homo sapiens) (UniProt P22830)
Sequence (P22830 whole entry, looked up): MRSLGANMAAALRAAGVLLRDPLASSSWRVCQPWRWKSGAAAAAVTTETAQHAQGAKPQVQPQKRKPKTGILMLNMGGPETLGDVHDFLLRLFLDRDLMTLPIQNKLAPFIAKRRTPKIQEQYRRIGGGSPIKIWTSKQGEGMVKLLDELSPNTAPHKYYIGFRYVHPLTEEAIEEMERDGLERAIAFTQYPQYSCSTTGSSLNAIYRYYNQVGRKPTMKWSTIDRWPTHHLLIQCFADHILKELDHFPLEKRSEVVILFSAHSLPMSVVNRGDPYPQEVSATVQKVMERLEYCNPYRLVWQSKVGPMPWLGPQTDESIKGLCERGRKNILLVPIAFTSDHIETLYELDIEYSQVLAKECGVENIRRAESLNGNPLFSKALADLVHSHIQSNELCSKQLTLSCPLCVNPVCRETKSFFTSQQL
Experiment: FECH heme synthesis enzyme blockers – biochemical, purified FECH, Ni-mesoporphyrin absorbance, primary screen (AID 1671448)
Details: Ni-mesoporphyrin absorbance 550 nm, screened at 10 µM (by protocol)
Screen size: about 20,000 compounds; about 660 (3.3%) were called active.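 The calls were made as follows: active = enzyme reaction rate more than 3 SD below the solvent-only control wells on the same plate; inactive = the rest.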 Many of the other results were omitted from the sample, so actives are more common in it than they were.
Lab note: assign the record to one of active, inactive

Take a look at these entries with their results.
{"Compound": "CC(C)c1c(-c2ccccc2)ncn1CC(=O)N1CCNCC1", "Assigned Class": "inactive"}
{"Compound": "COc1ccccc1CNc1nc2nc(CNc3ccc(F)cc3)cc(=O)n2[nH]1", "Assigned Class": "inactive"}
{"Compound": "Cc1ccccc1C(C(=O)N1CCCOCC1)N(C)C (stereo not given)", "Assigned Class": "inactive"}
{"Compound": "COc1ccc(C(=O)N(Cc2nc3nc(C)cc(C)n3n2)c2ccc(F)cc2)cc1", "Assigned Class": "inactive"}
{"Compound": "CCN(CC)Cc1cnc2c(C(=O)Nc3cccc4cc(C)oc34)cnn2c1", "Assigned Class": "inactive"}
{"Compound": "CC(C(=O)NCCc1ccc(S(N)(=O)=O)cc1)N1C(=O)CC(C)(C)Sc2ccccc21 (stereo not given)", "Assigned Class": "inactive"}
{"Compound": "CN(CCC1CCCCO1)C(=O)c1ccc(CSc2ncn[nH]2)o1 (stereo not given)", "Assigned Class": "inactive"}
{"Compound": "O=C(Nc1ccccc1)c1cc2n(n1)CCN(Cc1cnc[nH]1)C2", "Assigned Class": "inactive"}
{"Compound": "COc1cccc2c1OCCCN(C(=O)[C@@H]1Cc3ccccc3N1)C2", "Assigned Class": "inactive"}
{"Compound": "Cc1ccsc1CN(CCO)C(=O)c1ccc2c(c1)CCCO2", "Assigned Class": "inactive"}

// query Hi, sorry to bother you, what did the test record for COc1ccccc1NC(=O)CN1CCN(Cc2ccccc2C)S1(=O)=O ?
// result inactive

// query Hi, sorry to bother you, what did the test record for CNCc1cc(-c2ccc(C)c3ncccc23)ccc1OC ?
// result inactive

// query Hi, sorry to bother you, what did the test record for Cc1ccc(CSc2ncc(Cl)c(C(=O)Nc3ccc(S(N)(=O)=O)cc3)n2)cc1 ?
// result inactive

// query Hi, sorry to bother you, what did the test record for Cc1ccc(-n2c(=O)n(C)c3c(C(N)=O)nc(-c4ccc(Cl)cc4)nc32)cc1C ?
// result inactive

// query Hi, sorry to bother you, what did the test record for CC(C)CCNC(=O)c1nc[nH]c1C(=O)NCC(C)(C)C ?
// result inactive

// query Hi, sorry to bother you, what did the test record for OCc1csc(N2CCC(CO)(Cc3ccccc3Cl)CC2)n1 ?
// result inactive

// query Hi, sorry to bother you, what did the test record for Cc1cc(NC(=O)c2ccc(C(C)(C)C)cc2)n(-c2ncnc3c2cnn3-c2ccc(Cl)cc2)n1 ?
// result inactive

// query Hi, sorry to bother you, what did the test record for Cc1ccc(-c2ccnc(-c3ccc(CCC(=O)O)cc3)n2)c(C)n1 ?
// result inactive

// query Hi, sorry to bother you, what did the test record for CCOc1ccc(CCNC(=O)CN2C(=O)C=C(CC(=O)OC)Nc3ccccc32)cc1OCC ?
// result inactive

// query Hi, sorry to bother you, what did the test record for COc1ccc(NC2=NC(C(=O)Nc3cc(OC)ccc3OC)CC(=O)N2)cc1 (stereo not given) ?
// result inactive

// query Hi, sorry to bother you, what did the test record for Cc1ccc(C2=CC(c3ccc(F)cc3)n3nc(NC(=O)CC(C)C)nc3N2)cc1 (stereo not given) ?
// result inactive

// provenance: PubChem BioAssay AID1671448
